# Species: Oryctolagus cuniculus
# Assay Remarks: Inhibition of rabbit MKK1 expressed in Escherichia coli at 1 uM
# Reported Conditions: values are per cent of control
Response field label: string, one of 1 (residual activity strictly below 90%) or 0.

Reference set (8 entries):
Compound	Group Label
CO[C@H]1C[C@@H]2CC[C@@H](C)[C@@](O)(O2)C(=O)C(=O)N2CCCC[C@H]2C(=O)O[C@H]([C@H](C)C[C@@H]2CC[C@@H](O)[C@H](OC)C2)CC(=O)[C@H](C)/C=C(\C)[C@@H](O)[C@@H](OC)C(=O)[C@H](C)C[C@H](C)/C=C/C=C/C=C/1C	0
Cn1cc(C2=C(c3cn(CCCN)c4ccccc34)C(=O)NC2=O)c2ccccc21	0
COC[C@H]1OC(=O)c2coc3c2[C@@]1(C)C1=C(C3=O)[C@@H]2CCC(=O)[C@@]2(C)C[C@H]1OC(C)=O [WORTMANNIN]	0
Cn1c2ccccc2c2c3c(c4c5ccccc5n(CCC#N)c4c21)CNC3=O	1
CN1C(=O)C(c2c[nH]c3ccccc23)=C(c2c[nH]c3ccccc23)C1=O	0
Cn1cc(C2=C(c3cn(CCCSC(=N)N)c4ccccc34)C(=O)NC2=O)c2ccccc21 [BISINDOLYLMALEIMIDE IX]	0
Cn1cc(C2=C(c3c4n(c5ccccc35)CCC(CN)C4)C(=O)NC2=O)c2ccccc21 (stereo not given)	0
CN(C)CCCn1cc(C2=C(c3c[nH]c4ccccc34)C(=O)NC2=O)c2ccccc21	0

Attention now turns to another entry.
State whether 90% exceeds residual activity recorded for O=C1NC(=O)C(c2c[nH]c3ccccc23)=C1c1c[nH]c2ccccc12 . 1
